Species: Homo sapiens
protocolDetails: Compound was tested for inhibitory activity against leukotriene B4 induced neutrophil chemotaxis
Format: functional
measuredAttribute: log10(IC50) (log10 of the value in nM)

- CCCCC/C=C\C[C@@H](O)/C=C/C=C/C=C\[C@@H](O)CCCC(=O)O: 0.25
- CCCc1c(OCCCOc2ccc(C(=O)NC)c(OC)c2CC2CC2)ccc2c1O[C@H](CCC(=O)O)CC2: 1.39
- CCCc1c(OCCCOc2ccc(C(=O)NC)c(OC)c2CC2CC2)ccc2c1OC(CCC(=O)O)CC2 (stereo unspecified): 1.34
- CCCc1c(OCCCOc2ccc(C(=O)NC)c(OC)c2CC2CC2)ccc2c1O[C@@H](CCC(=O)O)CC2: 1.03
- CCCc1c(OCCCOc2ccc(C(=O)NC)c(OC)c2CC2CC2)ccc2c1OC(C(=O)O)CC2 (stereo unspecified): 1.11

###

Organism: Homo sapiens
protocolDetails: Compound was tested for inhibitory activity against leukotriene B4 induced neutrophil chemotaxis
Format: functional
Measured IC50 by item
measuredAttribute: IC50 (nM)

* CCCc1c(OCCCOc2ccc(C(N)=O)c(OC)c2CCC)ccc2c1OC(C(=O)O)CC2 (stereo not given) | 2.7
* CCCc1c(OCCCOc2ccc(C(C)=O)c(OC)c2CCC)ccc2c1OC(C(=O)O)CC2 (stereo not given) [SC-41390] | 1
* CCCc1c(OCCCOc2ccc(C(=O)NC)c(OC)c2CCC)ccc2c1OC(C(=O)O)CC2 (stereo not given) | 1.3
* CCCc1c(OCCCOc2ccc(C(=O)NC(C)C)c(OC)c2CCC)ccc2c1OC(C(=O)O)CC2 (stereo not given) | 0.11

###

Entries with reported IC50 on Leukotriene B4 receptor 1 (Homo sapiens, UniProt Q15722)
Sequence (Q15722 whole entry): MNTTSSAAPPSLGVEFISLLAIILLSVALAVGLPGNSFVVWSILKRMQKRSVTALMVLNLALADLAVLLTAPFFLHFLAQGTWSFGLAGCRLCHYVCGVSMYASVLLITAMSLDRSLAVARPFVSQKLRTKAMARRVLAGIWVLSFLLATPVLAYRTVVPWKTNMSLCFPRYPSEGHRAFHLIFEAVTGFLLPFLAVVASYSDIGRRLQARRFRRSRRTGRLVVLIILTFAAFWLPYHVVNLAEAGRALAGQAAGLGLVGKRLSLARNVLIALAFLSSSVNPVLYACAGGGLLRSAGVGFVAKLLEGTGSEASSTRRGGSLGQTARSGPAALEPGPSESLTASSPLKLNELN
measuredAttribute: IC50

• CCCc1c(OCCCOc2ccc(C(=O)NC)c(OC)c2CC2CC2)ccc2c1OC(C(=O)O)CC2 (configuration not stated) = 5.3 nM
• CCCc1c(OCCCOc2ccc(C(=O)N3CCCC3)c(OC)c2CCC)ccc2c1OC(C(=O)O)CC2 (configuration not stated) = < 0.1 nM
• CCCc1c(OCCCOc2ccc(C(N)=O)c(OC)c2CCC)ccc2c1OC(C(=O)O)CC2 (configuration not stated) = 2.4 nM
• CCCc1c(OCCCOc2ccc(C(=O)NC)c(OC)c2CC2CC2)ccc2c1O[C@H](CCC(=O)O)CC2 = 14.5 nM
• CCCc1c(OCCCOc2ccc(C(=O)NC)c(OC)c2CC2CC2)ccc2c1O[C@@H](CCC(=O)O)CC2 = 8.5 nM
• CCCc1c(OCCCOc2ccc(C(=O)N(C)C)c(OC)c2CCC)ccc2c1OC(C(=O)O)CC2 (configuration not stated) = 0.15 nM
• CCCc1c(OCCCOc2ccc(C(=O)NC)c(OC)c2CC2CC2)ccc2c1OC(CCC(=O)O)CC2 (configuration not stated) = 10.9 nM
